Where do these numbers come from? They come from BigSolDB 2.1.

EXPERIMENTAL_SETUP: in ethanol, 293.15 K
TEST_READOUT: solubility (mole fraction)

Quote solubility (mole fraction) reported for "COc1cc([N+](=O)[O-])ccc1N" please. 0.00438

====

EXPERIMENTAL_SETUP: in n-propanol, 298.15 K
TEST_READOUT: solubility (mole fraction)
// print number alone

Quote solubility (mole fraction) reported for "COc1cc([N+](=O)[O-])ccc1N" please. 0.00423

====

EXPERIMENTAL_SETUP: in n-propanol, 318.15 K
TEST_READOUT: solubility (mole fraction)
// print number alone

Quote solubility (mole fraction) reported for "COc1cc([N+](=O)[O-])ccc1N" please. 0.00876

====

EXPERIMENTAL_SETUP: in acetonitrile, 278.15 K
TEST_READOUT: solubility (mole fraction)
// print number alone

Quote solubility (mole fraction) reported for "COc1cc([N+](=O)[O-])ccc1N" please. 0.0118

====

EXPERIMENTAL_SETUP: in methanol, 313.15 K
TEST_READOUT: solubility (mole fraction)
// print number alone

Quote solubility (mole fraction) reported for "COc1cc([N+](=O)[O-])ccc1N" please. 0.00844

====

EXPERIMENTAL_SETUP: in 1,4-dioxane, 323.15 K
TEST_READOUT: solubility (mole fraction)
// print number alone

Quote solubility (mole fraction) reported for "COc1cc([N+](=O)[O-])ccc1N" please. 0.133

====

EXPERIMENTAL_SETUP: in NMP, 293.15 K
TEST_READOUT: solubility (mole fraction)
// print number alone

Quote solubility (mole fraction) reported for "COc1cc([N+](=O)[O-])ccc1N" please. 0.303

====

EXPERIMENTAL_SETUP: in ethyl acetate, 318.15 K
TEST_READOUT: solubility (mole fraction)

Quote solubility (mole fraction) reported for "COc1cc([N+](=O)[O-])ccc1N" please. 0.0854

====

EXPERIMENTAL_SETUP: in ethanol, 318.15 K
TEST_READOUT: solubility (mole fraction)
// print number alone

Quote solubility (mole fraction) reported for "COc1cc([N+](=O)[O-])ccc1N" please. 0.0121

====

EXPERIMENTAL_SETUP: in n-butanol, 288.15 K
TEST_READOUT: solubility (mole fraction)
// print number alone

Quote solubility (mole fraction) reported for "COc1cc([N+](=O)[O-])ccc1N" please. 0.00202

====

EXPERIMENTAL_SETUP: in ethanol, 308.15 K
TEST_READOUT: solubility (mole fraction)
// print number alone

Quote solubility (mole fraction) reported for "COc1cc([N+](=O)[O-])ccc1N" please. 0.0078

====

EXPERIMENTAL_SETUP: in n-propanol, 283.15 K
TEST_READOUT: solubility (mole fraction)
// print number alone

Quote solubility (mole fraction) reported for "COc1cc([N+](=O)[O-])ccc1N" please. 0.00239

====

EXPERIMENTAL_SETUP: in methanol, 278.15 K
TEST_READOUT: solubility (mole fraction)

Quote solubility (mole fraction) reported for "COc1cc([N+](=O)[O-])ccc1N" please. 0.00238

====

EXPERIMENTAL_SETUP: in ethanol, 323.15 K
TEST_READOUT: solubility (mole fraction)

Quote solubility (mole fraction) reported for "COc1cc([N+](=O)[O-])ccc1N" please. 0.015

====

EXPERIMENTAL_SETUP: in water, 313.15 K
TEST_READOUT: solubility (mole fraction)
// print number alone

Quote solubility (mole fraction) reported for "COc1cc([N+](=O)[O-])ccc1N" please. 3.2e-05

====

EXPERIMENTAL_SETUP: in acetonitrile, 313.15 K
TEST_READOUT: solubility (mole fraction)
// print number alone

Quote solubility (mole fraction) reported for "COc1cc([N+](=O)[O-])ccc1N" please. 0.0547

====

EXPERIMENTAL_SETUP: in water, 288.15 K
TEST_READOUT: solubility (mole fraction)
// print number alone

Quote solubility (mole fraction) reported for "COc1cc([N+](=O)[O-])ccc1N" please. 7e-06

====

EXPERIMENTAL_SETUP: in NMP, 323.15 K
TEST_READOUT: solubility (mole fraction)
// print number alone

Quote solubility (mole fraction) reported for "COc1cc([N+](=O)[O-])ccc1N" please. 0.426

====

EXPERIMENTAL_SETUP: in ethanol, 288.15 K
TEST_READOUT: solubility (mole fraction)
// print number alone

Quote solubility (mole fraction) reported for "COc1cc([N+](=O)[O-])ccc1N" please. 0.00363

====

EXPERIMENTAL_SETUP: in 1,4-dioxane, 298.15 K
TEST_READOUT: solubility (mole fraction)

Quote solubility (mole fraction) reported for "COc1cc([N+](=O)[O-])ccc1N" please. 0.0556

====

EXPERIMENTAL_SETUP: in methanol, 308.15 K
TEST_READOUT: solubility (mole fraction)

Quote solubility (mole fraction) reported for "COc1cc([N+](=O)[O-])ccc1N" please. 0.00682

====

EXPERIMENTAL_SETUP: in ethylene glycol, 283.15 K
TEST_READOUT: solubility (mole fraction)
// print number alone

Quote solubility (mole fraction) reported for "COc1cc([N+](=O)[O-])ccc1N" please. 0.00201

====

EXPERIMENTAL_SETUP: in DMSO, 323.15 K
TEST_READOUT: solubility (mole fraction)

Quote solubility (mole fraction) reported for "COc1cc([N+](=O)[O-])ccc1N" please. 0.344

====

EXPERIMENTAL_SETUP: in ethanol, 278.15 K
TEST_READOUT: solubility (mole fraction)

Quote solubility (mole fraction) reported for "COc1cc([N+](=O)[O-])ccc1N" please. 0.00263

====

EXPERIMENTAL_SETUP: in acetonitrile, 303.15 K
TEST_READOUT: solubility (mole fraction)
// print number alone

Quote solubility (mole fraction) reported for "COc1cc([N+](=O)[O-])ccc1N" please. 0.0345

====

EXPERIMENTAL_SETUP: in ethyl acetate, 313.15 K
TEST_READOUT: solubility (mole fraction)
// print number alone

Quote solubility (mole fraction) reported for "COc1cc([N+](=O)[O-])ccc1N" please. 0.0716

====

EXPERIMENTAL_SETUP: in ethanol, 283.15 K
TEST_READOUT: solubility (mole fraction)
// print number alone

Quote solubility (mole fraction) reported for "COc1cc([N+](=O)[O-])ccc1N" please. 0.00307

====

EXPERIMENTAL_SETUP: in acetonitrile, 298.15 K
TEST_READOUT: solubility (mole fraction)

Quote solubility (mole fraction) reported for "COc1cc([N+](=O)[O-])ccc1N" please. 0.0269

====

EXPERIMENTAL_SETUP: in 1,4-dioxane, 318.15 K
TEST_READOUT: solubility (mole fraction)

Quote solubility (mole fraction) reported for "COc1cc([N+](=O)[O-])ccc1N" please. 0.111

====

EXPERIMENTAL_SETUP: in NMP, 283.15 K
TEST_READOUT: solubility (mole fraction)
// print number alone

Quote solubility (mole fraction) reported for "COc1cc([N+](=O)[O-])ccc1N" please. 0.272

====

EXPERIMENTAL_SETUP: in 1,4-dioxane, 293.15 K
TEST_READOUT: solubility (mole fraction)
// print number alone

Quote solubility (mole fraction) reported for "COc1cc([N+](=O)[O-])ccc1N" please. 0.0468

====

EXPERIMENTAL_SETUP: in methanol, 303.15 K
TEST_READOUT: solubility (mole fraction)

Quote solubility (mole fraction) reported for "COc1cc([N+](=O)[O-])ccc1N" please. 0.00565

====

EXPERIMENTAL_SETUP: in ethyl acetate, 308.15 K
TEST_READOUT: solubility (mole fraction)
// print number alone

Quote solubility (mole fraction) reported for "COc1cc([N+](=O)[O-])ccc1N" please. 0.0596

====

EXPERIMENTAL_SETUP: in DMSO, 293.15 K
TEST_READOUT: solubility (mole fraction)
// print number alone

Quote solubility (mole fraction) reported for "COc1cc([N+](=O)[O-])ccc1N" please. 0.235

====

EXPERIMENTAL_SETUP: in water, 278.15 K
TEST_READOUT: solubility (mole fraction)
// print number alone

Quote solubility (mole fraction) reported for "COc1cc([N+](=O)[O-])ccc1N" please. 4e-06

====

EXPERIMENTAL_SETUP: in n-butanol, 313.15 K
TEST_READOUT: solubility (mole fraction)

Quote solubility (mole fraction) reported for "COc1cc([N+](=O)[O-])ccc1N" please. 0.0057

====

EXPERIMENTAL_SETUP: in 1,4-dioxane, 313.15 K
TEST_READOUT: solubility (mole fraction)
// print number alone

Quote solubility (mole fraction) reported for "COc1cc([N+](=O)[O-])ccc1N" please. 0.0925

====

EXPERIMENTAL_SETUP: in DMSO, 308.15 K
TEST_READOUT: solubility (mole fraction)
// print number alone

Quote solubility (mole fraction) reported for "COc1cc([N+](=O)[O-])ccc1N" please. 0.281
